This section presents molecules with their documented PI(3, 4, 5)P3 values.
- System: PI(3,4,5)P3 liposomes
- method.summary: Yeast proteome chip probed with PI(3,4,5)P3 liposomes
- details: liposome binding signal on yeast proteome chip, Cy3-streptavidin detection
API note: the answer field is a bare number with no unit suffix.

Before answering, review these 3 worked examples.
1. GFD1: yeast GST-HisX6 fusion protein on proteome chip (protein, UniProt Q04839 1-188, looked up, GST-His6 tag, yeast GST-HisX6 fusion protein on proteome chip) mRNA transport factor GFD1: MPLESIWADAPDEEPIKKQKPSHKRSNNNKKNNNSRWSNESSSNNKKKDSVNKVKNNKGNHESKTKNKIKETLPREKKPPHSQGKISPVSESLAINPFSQKATEISPPPVSPSKMKTTKTQSKQDTASKMKLLKKKIEEQREILQKTHHKNQQQQVLMDFLNDEGSSNWVDDDEEELILQRLKTSLKI = 3.38
2. ERV1: yeast GST-HisX6 fusion protein on proteome chip (protein, UniProt P27882 1-189, looked up, GST-His6 tag, yeast GST-HisX6 fusion protein on proteome chip) Mitochondrial FAD-linked …: MKAIDKMTDNPPQEGLSGRKIIYDEDGKPCRSCNTLLDFQYVTGKISNGLKNLSSNGKLAGTGALTGEASELMPGSRTYRKVDPPDVEQLGRSSWTLLHSVAASYPAQPTDQQKGEMKQFLNIFSHIYPCNWCAKDFEKYIRENAPQVESREELGRWMCEAHNKVNKKLRKPKFDCNFWEKRWKDGWDE = 1.35
3. ROT1: yeast GST-HisX6 fusion protein on proteome chip (protein, UniProt Q03691 25-256, looked up, GST-His6 tag, yeast GST-HisX6 fusion protein on proteome chip) Protein ROT1: EDESNSIYGTWSSKSNQVFTGPGFYDPVDELLIEPSLPGLSYSFTEDGWYEEATYQVSGNPRNPTCPMASLIYQHGTYNISENGTLVLNPIEVDGRQLFSDPCNDDGVSTYSRYNQTETFKEYAVGIDPYHGIYTLQLYQYDGTPMQPLYLAYRPPMMLPTETLNPTSSATSTDDPSSNKKRSLRSLVRRSLENRHKTNAIKRQNTSFLTSNAIWYISAGMLGVGSLLFLAF = 99.11

Let us move to another entry and its PI(3, 4, 5)P3.
Query string: Suppose we examine the molecule OPY1: yeast GST-HisX6 fusion protein on proteome chip (protein, UniProt P38271 1-328, looked up, GST-His6 fusion tag, yeast GST-HisX6 fusion protein on proteome chip) Pleckstrin homology domain …: MIAGATAPSSQHEILIASNLIKKPSTSQNKTPTAQSSSGNNGAADGAPQGYHHHHHHHRHLWWPRTTDHQYWCVLRKNQFAYYKTRDEREAISVIPRFDILNFKISELDGILTVYTPSKDLIFKFPRGQNEKVGMELMHNWKIALEKFLSSPSGNESVTTGSDYDEEEDDDDLIVVDEKAGPSSSKHSCSLTMDEQLSREDKEFYRMFDPRNAEHQVCSGILYTKVKKKKLFNRAKWQKFNVELTNTSFNLYSFKTGKLKKSIKLDKIIDCIELDNNSKMKNDDTNFALITFDERLSFKAANDQDMVDWIINFKSGILIRKKLKAENI ; what PI(3, 4, 5)P3 value has been reported?
Result string: 41.17

Where these numbers come from: patent US20050182242A1
